- System: C. elegans VP596, manual health composite score, 20-22 h
- experimentSummary: whole-worm cytotoxicity of SKN-1 inhibitor candidates – whole organism, strain VP596, composite health score, cytotoxicity control for SKN-1 inhibitor project, SAR follow-up (AID 652161)
Activity calls are given as the source filed them.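 Rule for the calls: active = IC50 of 25 µM or lower, counted as toxic to worms; inactive = the rest.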
Possible outcomes: t = active, f = inactive

>  <compound>
O=C(/C=C/Nc1ccc(F)cc1F)c1ccco1

>  <labelClass>
t

$$$$
>  <compound>
c1ccc(SCc2cc(-c3ccccc3)no2)cc1

>  <labelClass>
t

$$$$
>  <compound>
O=C(Nc1nc(-c2ccccc2)cs1)c1cccs1

>  <labelClass>
t

$$$$
>  <compound>
CC(C)c1ccc(C(=O)Nc2ccc(CN3CCOCC3)cc2)cc1

>  <labelClass>
t

$$$$
>  <compound>
Clc1ccc(-c2nnc(-c3ccco3)o2)cc1

>  <labelClass>
t

$$$$
>  <compound>
COc1cc(CNC(C)c2ccccc2)cc(Br)c1OCc1ccc(F)cc1 (stereo unspecified)

>  <labelClass>
f

$$$$
>  <compound>
O=C(/C=C/c1ccc(Br)cc1)c1ccc(NC2=NCCCS2)cc1

>  <labelClass>
t

$$$$
>  <compound>
O=C(/C=C/c1ccccc1)Nc1ccc(CN2CCOCC2)cc1

>  <labelClass>
f

$$$$
>  <compound>
Clc1ccc(Nc2nc(-c3cccs3)cs2)nc1

>  <labelClass>
t

$$$$
>  <compound>
Cc1cc(OCc2cccc(Cl)c2)c(C)cc1CN1CCOCC1

>  <labelClass>
t

$$$$
>  <compound>
COc1cc(CNC(C)(C)CO)cc(Br)c1OCc1ccc(Cl)cc1

>  <labelClass>
f

$$$$
>  <compound>
Clc1ccc(-c2nnc(-c3ccccc3)o2)c(Cl)c1

>  <labelClass>
f

$$$$
>  <compound>
O=C(/C=C/Nc1ccc(Br)cc1F)c1ccco1

>  <labelClass>
t

$$$$
>  <compound>
Cc1ccc(CSc2nnc(-c3ccco3)o2)cc1

>  <labelClass>
t

$$$$
>  <compound>
CCOC(=O)c1c(-c2ccc(-c3ccccc3)cc2)csc1NC(=O)CNCCN(C)C

>  <labelClass>
f

$$$$
>  <compound>
Brc1ccc(CSc2nnc(-c3cccnc3)o2)cc1

>  <labelClass>
f

$$$$
>  <compound>
Cc1oc(-c2ccc(-c3ccccc3)cc2)nc1CN(C)C1CCOC1 (stereo unspecified)

>  <labelClass>
f

$$$$
>  <compound>
Clc1ccccc1-c1nc(-c2ccncc2)no1

>  <labelClass>
t

$$$$
>  <compound>
CCOc1cc(CNC2CCCC2)cc(Cl)c1OCc1ccc(F)cc1

>  <labelClass>
f

$$$$
>  <compound>
CCOc1cc(CNCCSc2nnnn2C)cc(Br)c1OCc1ccc(F)cc1

>  <labelClass>
t

$$$$
>  <compound>
O=C(/C=C/Nc1ccccc1F)c1cccs1

>  <labelClass>
f

$$$$
>  <compound>
Cc1nc2ccccc2cc1OCc1ccc(F)cc1

>  <labelClass>
t

$$$$
>  <compound>
O=C(/C=C/Nc1ccc(F)cc1F)c1cccs1

>  <labelClass>
t

$$$$
>  <compound>
c1ccc(Nc2nc(-c3cccs3)cs2)nc1

>  <labelClass>
t

$$$$
>  <compound>
Brc1ccc(-c2nc(-c3ccccc3)no2)o1

>  <labelClass>
t

$$$$
>  <compound>
c1ccc2oc(SCc3nc4ccccc4s3)nc2c1

>  <labelClass>
t

$$$$

---

- System: C. elegans VP596, manual health composite score, 20-22 h
- experimentSummary: whole-worm cytotoxicity of SKN-1 inhibitor candidates – whole organism, strain VP596, composite health score, cytotoxicity control for SKN-1 inhibitor project, SAR follow-up (AID 652161)
Activity calls are given as the source filed them.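 The calls were made as follows: active = IC50 of 25 µM or lower, counted as toxic to worms; inactive = the rest.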
Recorded IC50 by entry

>  <smilesRepr>
O=C(Nc1nc(-c2ccc(Cl)s2)cs1)c1ccco1

>  <IC50>
16.1 µM

$$$$
>  <smilesRepr>
O=C(Nc1nc(-c2ccc(Cl)s2)cs1)c1cccs1

>  <IC50>
> 64 µM (inactive)

$$$$
>  <smilesRepr>
O=C(Nc1nc(-c2ccc(Cl)s2)cs1)c1ccccc1

>  <IC50>
> 64 µM (inactive)

$$$$
>  <smilesRepr>
O=C(/C=C/c1cccs1)c1ccc(Br)cc1

>  <IC50>
11.6 µM

$$$$
>  <smilesRepr>
Clc1ccccc1-c1nnc(-c2ccccc2Cl)o1

>  <IC50>
20.9 µM

$$$$
>  <smilesRepr>
Fc1ccc(-c2csc(Nc3ccccn3)n2)cc1

>  <IC50>
7.02 µM

$$$$
>  <smilesRepr>
Brc1ccc(CSc2nnc(-c3ccco3)o2)cc1

>  <IC50>
8.76 µM

$$$$
>  <smilesRepr>
Fc1ccc(COc2ccc(-c3nnco3)cc2)cc1

>  <IC50>
34.9 µM (inactive)

$$$$
>  <smilesRepr>
c1ccc(-c2csc(-c3ccncc3)n2)cc1

>  <IC50>
23.9 µM

$$$$
>  <smilesRepr>
CCOc1ccc(-c2nc(-c3cccnc3)no2)cc1

>  <IC50>
8.88 µM

$$$$
>  <smilesRepr>
O=C(/C=C/Nc1ccc(F)c(Cl)c1)c1ccco1

>  <IC50>
18.8 µM

$$$$
>  <smilesRepr>
Cc1ccccc1-c1noc(-c2cccs2)n1

>  <IC50>
7.83 µM

$$$$
>  <smilesRepr>
CCOC(=O)Nc1nc(-c2ccc(F)cc2F)cs1

>  <IC50>
22.9 µM

$$$$
>  <smilesRepr>
O=C(Nc1nccs1)c1ccc2ccccc2n1

>  <IC50>
16 µM

$$$$
>  <smilesRepr>
c1ccc2sc(SCc3ccc(-c4nnco4)cc3)nc2c1

>  <IC50>
14.5 µM

$$$$
>  <smilesRepr>
COc1ccc(C(=O)Nc2nc(-c3cccs3)cs2)cc1

>  <IC50>
> 64 µM (inactive)

$$$$
>  <smilesRepr>
O=C(Nc1ccc(CN2CCOCC2)cc1)c1cc2ccccc2o1

>  <IC50>
35.3 µM (inactive)

$$$$
>  <smilesRepr>
c1ccc(-c2nc(-c3ccncc3)no2)cc1

>  <IC50>
> 64 µM (inactive)

$$$$
>  <smilesRepr>
Fc1ccc(COc2ccc(-c3nnco3)cc2)c(Cl)c1

>  <IC50>
8.11 µM

$$$$
>  <smilesRepr>
COc1cc(CNC2CCCC2)cc(Cl)c1OCc1ccc(F)cc1

>  <IC50>
46.9 µM (inactive)

$$$$
>  <smilesRepr>
Cc1ccc2nc(-c3ccc(NC(=S)NC4CC(C)(C)NC(C)(C)C4)cc3)sc2c1

>  <IC50>
62 µM (inactive)

$$$$
>  <smilesRepr>
CCc1ccc(-c2nc(-c3ccncc3)no2)cc1

>  <IC50>
10.6 µM

$$$$
>  <smilesRepr>
Fc1ccc(-c2csc(-c3ccncc3)n2)cc1

>  <IC50>
10.6 µM

$$$$
>  <smilesRepr>
Cc1ccc(N=C/C(C(=O)C(F)(F)F)=C(\O)c2ccco2)cc1Cl

>  <IC50>
27.2 µM (inactive)

$$$$
>  <smilesRepr>
O=C(Nc1nc2c(ccc3ccccc32)s1)c1ccco1

>  <IC50>
20.3 µM

$$$$
>  <smilesRepr>
Brc1ccc(-c2nnc(-c3ccco3)o2)cc1

>  <IC50>
12.9 µM

$$$$
>  <smilesRepr>
CCOc1cc(CNC2CCCC2)cc(Cl)c1OCc1ccccc1

>  <IC50>
> 64 µM (inactive)

$$$$
>  <smilesRepr>
CSc1cccc(NC(=O)c2cccc3cccnc23)c1

>  <IC50>
47 µM (inactive)

$$$$
>  <smilesRepr>
Cc1ccc(-c2noc(-c3cccs3)n2)cc1

>  <IC50>
10.6 µM

$$$$
>  <smilesRepr>
Cc1ccc(Nc2nc(-c3cccs3)cs2)nc1

>  <IC50>
27.3 µM (inactive)

$$$$
>  <smilesRepr>
O=C(/C=C/Nc1ccc(F)c(F)c1)c1cccs1

>  <IC50>
> 64 µM (inactive)

$$$$
>  <smilesRepr>
c1ccc(-c2csc(Nc3ccccn3)n2)cc1

>  <IC50>
6.56 µM

$$$$
